# ASSAY: Half life in mouse brain by HPLC-FLU analysis
# Format: ADME, tissue-based
Numbered stars: 1 amine (or outer) side, 2 acyl side, 3 side chain; on linkers, the order of the positions; unused ones are H or OH. Square brackets hold non-standard residues; d marks the D form. Peptide text beside a SMILES is read from it. LeuΨ(S-CHOHCH2)Ala = CC(C)C[C@H](N[*:1])[C@@H](O)C[C@@H](C)C(=O)[*:2]
MEASURED_ENDPOINT: half-life (min)
Answer format: numeric, min implied, no suffix.

Here is how some compounds turned out for half-life.
CC(=O)N[C@@H](CCC(=O)O)C(=O)N[C@@H](CC(C)C)C(=O)N[C@@H](CC(=O)O)C(=O)N[C@@H](CC(C)C)[C@@H](O)C[C@@H](C)C(=O)N[C@H](C(=O)N[C@@H](Cc1ccccc1)C(=O)N[C@@H](Cc1ccc(O)cc1)C(=O)N[C@@H](C)C(=O)N[C@@H](CCC(=O)O)C(=O)N[C@@H](CC(=O)O)C(N)=O)C(C)C (Ac-ELD[LeuΨ(S-CHOHCH2)Ala]VFYAED-NH2): 206
CC(C)C[C@H](NC(=O)[C@@H](N)CCC(=O)O)C(=O)N[C@@H](CC(=O)O)C(=O)N[C@@H](CC(C)C)[C@@H](O)C[C@@H](C)C(=O)N[C@H](C(=O)N[C@@H](CCC(=O)O)C(=O)N[C@@H](Cc1ccccc1)C(=O)O)C(C)C (H-ELD[LeuΨ(S-CHOHCH2)Ala]VEF-OH): 348
CC(C)C[C@H](NC(=O)[C@@H](N)CCC(=O)O)C(=O)N[C@@H](CC(=O)O)C(=O)N[C@@H](CC(C)C)[C@@H](O)C[C@@H](C)C(=O)N[C@H](C(=O)N[C@@H](Cc1ccccc1)C(=O)N[C@@H](Cc1ccc(O)cc1)C(=O)N[C@@H](C)C(=O)N[C@@H](CCC(=O)O)C(=O)N[C@@H](CC(=O)O)C(N)=O)C(C)C (H-ELD[LeuΨ(S-CHOHCH2)Ala]VFYAED-NH2): 138

QUERY: Let me know recorded half-life for CC(C)C[C@H](NC(=O)[C@@H](N)CCC(=O)O)C(=O)N[C@@H](CC(=O)O)C(=O)N[C@@H](CC(C)C)[C@@H](O)C[C@@H](C)C(=O)N[C@H](C(=O)N[C@@H](Cc1ccccc1)C(=O)N[C@@H](Cc1ccc(O)cc1)C(=O)N[C@@H](C)C(=O)N[C@@H](CCC(=O)O)C(=O)N[C@@H](CC(=O)O)C(=O)O)C(C)C (H-ELD[LeuΨ(S-CHOHCH2)Ala]VFYAED-OH) , thanks.
RESULT: 360

* * *

# ASSAY: Drug uptake in female mouse brain at 0.53 mg/kg, iv up to 1 hr by HPLC-FLU analysis
# Assay type: ADME, organism-based
# CONDITION_CONTEXT: read-out: Drug uptake
Numbered stars: 1 amine (or outer) side, 2 acyl side, 3 side chain; on linkers, the order of the positions; unused ones are H or OH. Square brackets hold non-standard residues; d marks the D form. Peptide text beside a SMILES is read from it. LeuΨ(S-CHOHCH2)Ala = CC(C)C[C@H](N[*:1])[C@@H](O)C[C@@H](C)C(=O)[*:2]
MEASURED_ENDPOINT: concentration at 1 h
Respond with a number, then the unit of measure.

QUERY: Let me know recorded concentration at 1 h for CC(C)C[C@H](NC(=O)[C@@H](N)CCC(=O)O)C(=O)N[C@@H](CC(=O)O)C(=O)N[C@@H](CC(C)C)[C@@H](O)C[C@@H](C)C(=O)N[C@H](C(=O)N[C@@H](Cc1ccccc1)C(=O)N[C@@H](Cc1ccc(O)cc1)C(=O)N[C@@H](C)C(=O)N[C@@H](CCC(=O)O)C(=O)N[C@@H](CC(=O)O)C(=O)O)C(C)C (H-ELD[LeuΨ(S-CHOHCH2)Ala]VFYAED-OH) , thanks.
RESULT: 20 nM

* * *

# Species on record: Homo sapiens
# ASSAY: Selectivity ratio of Ki(app) for human recombinant BACE2 to Ki for human recombinant BACE1
Numbered stars: 1 amine (or outer) side, 2 acyl side, 3 side chain; on linkers, the order of the positions; unused ones are H or OH. Square brackets hold non-standard residues; d marks the D form. Peptide text beside a SMILES is read from it. LeuΨ(S-CHOHCH2)Ala = CC(C)C[C@H](N[*:1])[C@@H](O)C[C@@H](C)C(=O)[*:2]
Overview of recorded Ratio for various molecules
Reply with the value as a number alone.

CC(=O)N[C@@H](CCC(=O)O)C(=O)N[C@@H](CC(C)C)C(=O)N[C@@H](CC(=O)O)C(=O)N[C@@H](CC(C)C)[C@@H](O)C[C@@H](C)C(=O)N[C@H](C(=O)N[C@@H](Cc1ccccc1)C(=O)N[C@@H](Cc1ccc(O)cc1)C(=O)N[C@@H](C)C(=O)N[C@@H](CCC(=O)O)C(=O)N[C@@H](CC(=O)O)C(N)=O)C(C)C (Ac-ELD[LeuΨ(S-CHOHCH2)Ala]VFYAED-NH2): 9.2
CC(C)C[C@H](NC(=O)[C@@H](N)CCC(=O)O)C(=O)N[C@@H](CC(=O)O)C(=O)N[C@@H](CC(C)C)[C@@H](O)C[C@@H](C)C(=O)N[C@H](C(=O)N[C@@H](Cc1ccccc1)C(=O)N[C@@H](Cc1ccc(O)cc1)C(=O)N[C@@H](C)C(=O)N[C@@H](CCC(=O)O)C(=O)N[C@@H](CC(=O)O)C(N)=O)C(C)C (H-ELD[LeuΨ(S-CHOHCH2)Ala]VFYAED-NH2): 7.5

QUERY: Let me know recorded Ratio for CC(C)C[C@H](NC(=O)[C@@H](N)CCC(=O)O)C(=O)N[C@@H](CC(=O)O)C(=O)N[C@@H](CC(C)C)[C@@H](O)C[C@@H](C)C(=O)N[C@H](C(=O)N[C@@H](Cc1ccccc1)C(=O)N[C@@H](Cc1ccccc1)C(=O)N[C@@H](C)C(=O)N[C@@H](CCC(=O)O)C(=O)N[C@@H](CC(=O)O)C(N)=O)C(C)C (H-ELD[LeuΨ(S-CHOHCH2)Ala]VFFAED-NH2) , thanks.
RESULT: 3.7

QUERY: Let me know recorded Ratio for CC(C)C[C@H](NC(=O)[C@@H](N)CCC(=O)O)C(=O)N[C@@H](CC(=O)O)C(=O)N[C@@H](CC(C)C)[C@@H](O)C[C@@H](C)C(=O)N[C@H](C(=O)N[C@@H](Cc1ccccc1)C(=O)N[C@@H](Cc1ccc(O)cc1)C(=O)N[C@@H](C)C(=O)N[C@@H](CCC(=O)O)C(=O)N[C@@H](CC(=O)O)C(=O)O)C(C)C (H-ELD[LeuΨ(S-CHOHCH2)Ala]VFYAED-OH) , thanks.
RESULT: 7.5
